All figures here come from patent US7235559B1.

- Tested on: MCF-7 cells
- assay name: In Vitro cell proliferation assay, Assay 1 (CyQUANT cell density)
- Type: cell-based
- condition: Homo sapiens, MCF7, 72 h, MCF-7, 3 days in presence of compound, read-out: concentration giving 50% inhibition of cell proliferation
- From the text: These and other assays can be used to determine the ability of a test compound to inhibit the growth of adherent mammalian cell lines, for example the human tumour cell line MCF7. MCF-7 (ATCC HTB-22) or other adherent cells were typically seeded at 1×10^3 cells per well (excluding the peripheral wells) in DMEM (Sigma Aldrich) without phenol red, plus 10% foetal calf serum, 1% L-glutamine and 1% penicillin/streptomycin in 96 well tissue culture treated clear plates (Costar). […]
test readout: IC50 (nM)

{"smiles input": "COc1cc2ncnc(Nc3cnc(NC(=O)c4ccccc4)nc3)c2cc1OC", "target": "MCF-7 cells", "units": "nM", "experimental result": 1700}
